Experiment: NCI Yeast Anticancer Drug Screen. Data for the bub3 strain (AID 167)
Details: S. cerevisiae bub3 mutant strain, at 5.0 µM (retest, dose inferred, filed as 0.5), active compounds read high
About 79,000 compounds went through this panel and 15% of them were active in at least one assay; those are over-represented in the sample as a whole.
Entries and their growth inhibition values follow.
Please state the figure in %; there is no need to write the unit.

Some molecules with recorded growth inhibition:
>>> observed_value("COc1ccccc1C(C)c1ccc2ccccc2c1C(=O)O (stereo unspecified)")
-6
>>> observed_value("CSC(=S)CC(O)[C@@H]1CC2c3ccccc3C1c1ccccc12 (stereo partly specified)")
17
>>> observed_value("O=[N+]([O-])c1ccc(Sc2c3ccccc3nc3ccccc23)nc1")
49
>>> observed_value("C=C1CC(O)C2C(C[Se]c3ccccc3)C(=O)O[C@@H]2C2C(=C)[C@@H](O)CC12 (stereo partly specified)")
-9
>>> observed_value("CCCCCCCCCCCCSC(=NCC)NCC")
96

Q: Returns the measured growth inhibition for the input molecule. Input: `CCOC(=O)Sc1nc2ccccc2[nH]1`
Result: 2

Q: Would you kindly share the measured growth inhibition for COc1ccc(C(CN2CCOCC2)C(C)=O)cc1OC (stereo unspecified) ?
Result: 10

Q: Return reported growth inhibition; argument: `CSc1ccc(/C=C2\CNC/C(=C\c3ccc(SC)cc3)C2=O)cc1`
Result: 17

Ref: PubChem BioAssay (NCI)
